Below, each entry is listed alongside its reported kon.
Target: T1, cynoCD46-His (cynomolgus, UniProt A0A2K5WCL8 35-328)
T1 construct: extracellular domain; Immobilised by amine coupling on the SPR chip; not shown: His tag
T1 sequence: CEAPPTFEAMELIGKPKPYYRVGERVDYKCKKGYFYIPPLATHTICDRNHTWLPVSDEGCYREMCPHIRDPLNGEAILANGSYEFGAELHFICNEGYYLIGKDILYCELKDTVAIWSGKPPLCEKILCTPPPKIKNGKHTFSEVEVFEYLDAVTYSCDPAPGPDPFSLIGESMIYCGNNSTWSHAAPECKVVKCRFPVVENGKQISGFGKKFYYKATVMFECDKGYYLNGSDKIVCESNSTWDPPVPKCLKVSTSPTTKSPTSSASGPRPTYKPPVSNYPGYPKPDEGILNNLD
Experiment: SPR, cynoCD46-His immobilised, antibody as analyte, pH 6.5
Kindly answer with a numeric value in M⁻¹ s⁻¹, unit omitted.

{"Binder": "BA-133-04-03 (antibody, V domains shown, also called CPE hit BA133-04-03) VH: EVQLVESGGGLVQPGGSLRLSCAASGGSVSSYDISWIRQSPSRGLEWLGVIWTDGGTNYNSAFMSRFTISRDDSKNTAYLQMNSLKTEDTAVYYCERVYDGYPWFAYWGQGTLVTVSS VL: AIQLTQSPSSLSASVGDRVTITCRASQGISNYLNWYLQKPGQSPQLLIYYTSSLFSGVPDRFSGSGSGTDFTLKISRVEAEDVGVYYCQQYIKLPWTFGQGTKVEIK", "kon [M⁻¹ s⁻¹]": "2.28e+06"}
{"Binder": "BAP133-2-03-03-SL (antibody, V domains shown, the killing assays used the ADC form; also called BAP133-02-03-03-SL; CPE hit BAP133-2-03-03-SL) VH: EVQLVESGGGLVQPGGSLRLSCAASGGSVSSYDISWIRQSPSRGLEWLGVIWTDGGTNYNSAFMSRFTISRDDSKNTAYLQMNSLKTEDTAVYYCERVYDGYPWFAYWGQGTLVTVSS VL: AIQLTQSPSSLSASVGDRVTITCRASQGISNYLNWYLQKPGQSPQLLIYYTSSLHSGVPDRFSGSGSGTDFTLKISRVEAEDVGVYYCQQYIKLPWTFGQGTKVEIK", "kon [M⁻¹ s⁻¹]": 849000}
{"Binder": "BAP133-2-02-12 (antibody, V domains shown, also called BAP133-02-02-12; CPE hit BAP133-2-02-12) VH: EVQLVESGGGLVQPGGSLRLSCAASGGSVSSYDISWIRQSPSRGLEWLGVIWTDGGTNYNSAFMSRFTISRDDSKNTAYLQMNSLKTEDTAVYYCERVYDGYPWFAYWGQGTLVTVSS VL: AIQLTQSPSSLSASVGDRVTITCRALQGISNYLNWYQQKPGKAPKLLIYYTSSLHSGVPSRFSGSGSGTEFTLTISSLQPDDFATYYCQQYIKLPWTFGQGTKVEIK", "kon [M⁻¹ s⁻¹]": "1.16e+06"}
{"Binder": "BA-133-04-04 (antibody, V domains shown, the killing assays used the ADC form; also called CPE hit BA133-04-04) VH: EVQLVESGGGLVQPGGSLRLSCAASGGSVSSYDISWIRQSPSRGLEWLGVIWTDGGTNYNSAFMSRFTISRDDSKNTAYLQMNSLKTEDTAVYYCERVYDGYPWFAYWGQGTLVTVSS VL: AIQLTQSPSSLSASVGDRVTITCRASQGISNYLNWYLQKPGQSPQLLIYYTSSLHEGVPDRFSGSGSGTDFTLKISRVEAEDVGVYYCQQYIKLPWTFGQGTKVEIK", "kon [M⁻¹ s⁻¹]": "1.33e+06"}

Query (binder): BA-133-04-02 (antibody, V domains shown, also called CPE hit BA133-04-02) VH: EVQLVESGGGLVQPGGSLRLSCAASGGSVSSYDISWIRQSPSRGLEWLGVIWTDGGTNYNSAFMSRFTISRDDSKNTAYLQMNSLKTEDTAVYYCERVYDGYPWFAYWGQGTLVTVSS VL: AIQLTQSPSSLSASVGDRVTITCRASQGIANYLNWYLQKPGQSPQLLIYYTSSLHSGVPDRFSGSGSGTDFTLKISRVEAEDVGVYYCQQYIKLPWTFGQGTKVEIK ; field requested: kon
1.38e+06

Query (binder): Benchmark (BM) BA-133-00-01 (antibody, V domains shown, the killing assays used the ADC form; Conjugation site and payload are not described; also called BM (bench mark)) VH: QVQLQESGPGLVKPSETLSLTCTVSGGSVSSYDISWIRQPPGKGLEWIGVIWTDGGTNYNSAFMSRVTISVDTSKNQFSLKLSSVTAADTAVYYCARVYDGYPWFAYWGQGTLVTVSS VL: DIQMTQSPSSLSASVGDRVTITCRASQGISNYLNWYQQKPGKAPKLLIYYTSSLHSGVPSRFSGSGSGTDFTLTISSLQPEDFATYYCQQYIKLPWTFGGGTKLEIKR ; field requested: kon
1.51e+06

Query (binder): BA-133-04-01 (antibody, V domains shown, also called CPE hit BA133-04-01) VH: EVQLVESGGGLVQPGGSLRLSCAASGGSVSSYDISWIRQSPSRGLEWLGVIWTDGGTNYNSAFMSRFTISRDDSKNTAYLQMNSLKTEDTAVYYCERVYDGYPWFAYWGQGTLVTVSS VL: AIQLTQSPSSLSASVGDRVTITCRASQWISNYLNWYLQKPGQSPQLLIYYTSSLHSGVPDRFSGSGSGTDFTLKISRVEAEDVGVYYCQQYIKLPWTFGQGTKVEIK ; field requested: kon
1.19e+06
